biological target: UniProtKB P01902; test: Binding assays: inhibition of binding of a radiolabeled standard peptide to purified MHC molecules
Sequence (P01902 22-368): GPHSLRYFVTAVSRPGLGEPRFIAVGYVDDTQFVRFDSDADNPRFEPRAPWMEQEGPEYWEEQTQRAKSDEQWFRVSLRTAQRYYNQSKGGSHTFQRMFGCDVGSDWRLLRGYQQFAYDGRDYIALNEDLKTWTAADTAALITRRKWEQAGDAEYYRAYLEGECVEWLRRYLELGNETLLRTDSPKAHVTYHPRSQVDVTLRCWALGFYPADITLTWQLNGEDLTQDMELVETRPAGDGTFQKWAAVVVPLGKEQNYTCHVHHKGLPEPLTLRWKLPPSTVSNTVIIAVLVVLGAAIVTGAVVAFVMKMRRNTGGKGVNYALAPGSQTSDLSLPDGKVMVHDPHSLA
Sequence (P01887 21-119 partner): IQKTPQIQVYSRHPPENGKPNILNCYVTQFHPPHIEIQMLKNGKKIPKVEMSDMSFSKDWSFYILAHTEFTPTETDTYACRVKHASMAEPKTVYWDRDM
Peptide text beside a SMILES is read from it.
Quantity Measured: IC50

[[record]]
compound = "CC(C)C[C@H](NC(=O)[C@H](CC(=O)O)NC(=O)[C@H](CC(C)C)NC(=O)[C@H](Cc1ccc(O)cc1)NC(=O)[C@@H](N)CCC(=O)O)C(=O)N[C@@H](CCC(N)=O)C(=O)N[C@H](C(=O)N[C@@H](CCC(N)=O)C(=O)O)[C@@H](C)O [Zfp236.1, E(y/D)LDLQTQ] (H-EYLDLQTQ-OH)"
test_result = "> 70 µM"

[[record]]
compound = "CC(C)C[C@H](NC(=O)[C@H](CC(=O)O)NC(=O)[C@H](CC(C)C)NC(=O)[C@H](Cc1ccc(O)cc1)NC(=O)[C@@H](N)CCC(=O)O)C(=O)N[C@@H](CCC(N)=O)C(=O)N[C@H](C(=O)N[C@@H](CCC(N)=O)C(=O)NCC(=O)O)[C@@H](C)O [Zfp236.2, E(y/D)LDLQTQG] (H-EYLDLQTQG-OH)"
test_result = "> 70 µM"


// moving on: another record for IC50
// lookup IC50 for CSCC[C@H](NC(=O)[C@@H]1CCCN1C(=O)[C@@H](NC(=O)[C@H](Cc1ccc(O)cc1)NC(=O)[C@@H](N)CC(=O)O)C(C)C)C(=O)N[C@@H](CCC(=O)O)C(=O)N[C@@H](CCC(N)=O)C(=O)N1CCC[C@H]1C(=O)O [Alkbh6.1, D(y/D)VPMEQP] (H-DYVPMEQP-OH)
> 70 µM

Ref: patent US11338026B2
